Please go through the items and note down their GI50.
Test system: EKVX
ASSAY_METHOD_TEXT: NCI tumour cell line growth inhibition, 48 h
Calls of active or inactive are those of the source. Cut-off read from the data, not from the text of the source: active = GI50 up to about 1.1 µM and inactive = higher.

In: Request the reported GI50 associated with CCCCCCCCCCCCCCCC[N+](C)(C)Cc1ccc(C[N+](C)(C)CCCCCCCCCCCCCCCC)cc1
Out: 3 µM (inactive)

In: What does the data say about its GI50? Entry: CC(C)(C)c1ccc(OC(=O)Nc2ccc(O)c(C(=O)O)c2)cc1
Out: > 100 µM (inactive)

In: Fill in: GI50 of Cc1nc2c(=O)n3c4c(cccc4c2o1)CCC3 is ___
Out: 76.6 µM (inactive)

In: Which GI50 is reported for this compound? CCOC(=O)C#Cc1ccccc1
Out: 2.28 µM (inactive)

In: Given the compound O=C1CNNC(CSc2nc3ccc(I)cc3c(=O)n2Cc2ccccc2)=N1 , what is its reported GI50?
Out: 23.6 µM (inactive)

In: Fill in: GI50 of COC(=O)c1sc2ncc3c(c2c1N)CCCCCC3 is ___
Out: > 100 µM (inactive)

In: # lookup: GI50 of Cc1ccc(C)c(N2C(=O)C(=O)C(c3nc4ccccc4o3)/C(=N/N)C2=O)c1 (stereo unspecified)
Out: > 100 µM (inactive)

In: Query: GI50; subject: C(=N\OCCc1ccccc1)/c1cccnc1
Out: > 100 µM (inactive)

In: For the compound shown here, CCOC(=O)c1[nH]c(-c2[nH]c(-c3[nH]c(-c4[nH]c(C(=O)OCC)c(C)c4C(=O)OCC)c(C(=O)OCC)c3C)c(C)c2C(=O)OCC)c(C(=O)OCC)c1C , give the reported GI50.
Out: > 100 µM (inactive)

In: Requested read-out: GI50. Entry: CC(=O)N/C(=C\c1ccc(Cc2nc3c([nH]2)C(=O)c2ccccc2C3=O)cc1)c1nc2c([nH]1)C(=O)c1ccccc1C2=O
Out: > 100 µM (inactive)

In: Given COC(=O)C(CCCC1(c2ccccc2)OCCO1)C(C)=O (stereo unspecified) , state its recorded GI50.
Out: > 100 µM (inactive)

The origin of these recorded values is ChEMBL document CHEMBL1201862.
